# System: EKVX NSCLC
# experimentNotes: NCI-60 one-dose screen, 48 h (100 = growth as untreated, 0 = no growth, -100 = all killed)
# testParameters: 10 µM unless noted
Compounds without any hit were thinned out: in the full panel of roughly 83,000, 20% have a hit.
observedProperty: growth (%)
The reply should contain only the number, in %.

"CCCCc1n(Cc2ccc3ccccc3n2)cc[n+]1Cc1ccc2ccccc2n1" has a reported growth of 50.9

Lab book: growth of CO[C@@]12[C@@H]3NC3CN1C1=C(C(=O)C(N)=C(C)C1=O)[C@@H]2COC(N)=O (stereo not given in full) noted as 49.6

growth reported for this molecule "COc1ccc(Br)c2ccccc12" : 94

Consider "COc1cc(CN2CCO[C@H](COc3cccc(F)c3)C2)ccc1Cl" . Its measured growth is 46.3

Value of measured growth for the entry C=C(C)C1CCC2(C(=O)O)CCC3(C)C(CCC4C5(C)CCC(O)C(C)(C)C5CCC43C)C12 (stereo not given) : 48.1
